assay: small molecules captured by biotinylated probe aFSTL3 – biochemical, small-molecule microarray, fluorescence 635/667, stem cell growth factor project, primary screen (AID 1064); settings: higher = more signal;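 also: measures binding of the biotinylated anti-FSTL3 antibody to printed compounds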
Returns one of yes or no; yes when composite z-score is >= -0.2.

{"compound": "C[C@@H]1ON(c2ccccc2)[C@H](c2ccccc2)[C@H]1C(=O)O", "assigned.class": "yes"}
{"compound": "CCOC(=O)C1=CC[C@@H](c2ccccc2)N(S(=O)(=O)c2ccc(C)cc2)[C@H]1c1ccccc1I", "assigned.class": "no"}
{"compound": "C=C(/C(=C/C[C@@H](OC(C)=O)c1cccc(OCCO)c1)c1cnc2ccccc2c1)C(C)C", "assigned.class": "yes"}
{"compound": "C=C(CCCC)/C(=C/C[C@@H](OC(C)=O)c1ccc(CO)o1)c1cnc2ccccc2c1", "assigned.class": "no"}
{"compound": "O=C1O[C@H](c2ccccc2)[C@H](c2ccccc2)N2[C@H]1[C@@H](C(=O)N1CCN(c3ncccn3)CC1)[C@]1(C(=O)Nc3ccc(C#CCCO)cc31)[C@H]2c1ccc(O)cc1", "assigned.class": "yes"}
{"compound": "COC(=O)C(CC#Cc1ccc2c(c1)[C@]1(C(=O)N2)[C@H](c2ccccc2OCCO)N2[C@H](c3ccccc3)[C@H](c3ccccc3)OC(=O)[C@H]2[C@@H]1C(=O)N1CCc2cc(OC)c(OC)cc2C1)C(=O)OC", "assigned.class": "yes"}
{"compound": "CC(C)(C)N1CC=CC23O[C@@H]4C=CCCOC(=O)C4[C@H]2C(=O)N(CCCCCCO)[C@@H]3C1=O (some centres not stated)", "assigned.class": "yes"}

----------
molecular target: Fibroblast growth factor 2 (Homo sapiens); test: basic fibroblast growth factor binding to printed compounds – biochemical, small-molecule microarray, 635/667 nm fluorescence, primary screen (AID 1133); conditions: FGF2, fluorescence 635/667, higher = more signal
Mark not fulfilled for composite z-score values under 0.02, and fulfilled for everything at or above.

{"molecule": "Cc1ccc(S[C@]2(C(=O)NCCCN(C)C)CC(=O)N(C3Cc4ccccc4C3)[C@@H]2c2ccc(CO)cc2I)cc1", "target.or.system": "Fibroblast growth factor 2 (Homo sapiens)", "assigned.class": "not fulfilled"}
{"molecule": "Cc1ccc(N2C(=O)c3ccccc3[C@](C)(C(=O)NCCCN(C)C)[C@@H]2c2ccc(CO)cc2)nc1", "target.or.system": "Fibroblast growth factor 2 (Homo sapiens)", "assigned.class": "not fulfilled"}
{"molecule": "COC(=O)C[C@H]1O[C@@]2(C[C@@H]1[Si](C)(C)C)C(=O)N(C)c1ccccc12", "target.or.system": "Fibroblast growth factor 2 (Homo sapiens)", "assigned.class": "not fulfilled"}
{"molecule": "C=C(COC)C(=O)CC[C@H](OC(=O)c1cccnc1)c1ccc(OCCO)cc1", "target.or.system": "Fibroblast growth factor 2 (Homo sapiens)", "assigned.class": "fulfilled"}
{"molecule": "O=C1N(Cc2ccccc2)c2ccccc2C[C@@]12COC(c1ccc(OCCCO)cc1)=N2", "target.or.system": "Fibroblast growth factor 2 (Homo sapiens)", "assigned.class": "fulfilled"}
{"molecule": "CCCCCC1=C2CNC(CC(C)C)(C(=O)OC)C=C2C(C)C1=O (centres undefined)", "target.or.system": "Fibroblast growth factor 2 (Homo sapiens)", "assigned.class": "not fulfilled"}
{"molecule": "CC(C)=CCCC(C)=CC(O)C1C=CC2C(=O)NC(=O)C2N1Nc1ccccn1 (centres undefined)", "target.or.system": "Fibroblast growth factor 2 (Homo sapiens)", "assigned.class": "fulfilled"}
{"molecule": "CCOC(=O)C1=CC[C@@H](c2ccccc2)N(S(=O)(=O)c2ccc(C)cc2)[C@H]1c1ccccc1I", "target.or.system": "Fibroblast growth factor 2 (Homo sapiens)", "assigned.class": "fulfilled"}
{"molecule": "O=C(NCc1ccccc1)[C@@H]1c2ccccc2C(=O)N(Cc2ccc(OC(F)(F)F)cc2)[C@H]1c1ccc(CO)cc1", "target.or.system": "Fibroblast growth factor 2 (Homo sapiens)", "assigned.class": "fulfilled"}

----------
test: probe aLAP1 signal on lysate-treated microarray – cell lysate, small-molecule microarray, COS7 lysate, primary screen (AID 1124); conditions: probe aLAP1, fluorescence, higher = more signal;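 also: lysate comes from COS7 cells expressing LAP1 and is applied at 0.3 µg/mL; score merges spot fluorescence near 667 nm with signal-to-noise over triplicate slides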
Could you label it true (1) if measured composite z-score is 0.4 or higher, and false (0) otherwise?

{"molecule": "COc1ccc(C(=O)Nc2ccc3c(c2)[C@@]2(O[C@H](CCO)[C@@H]([Si](C)(C)c4ccc(OC)cc4)[C@@H]2C)C(=O)N3Cc2ccccc2)cc1", "assigned.class": "true (1)"}
{"molecule": "[N-]=[N+]=Nc1ccccc1[C@H]1OC(c2ccc(OCCCO)cc2)=N[C@@]1(Cc1ccccc1)C(=O)NCC(O)CO (stereo partly drawn)", "assigned.class": "false (0)"}
{"molecule": "O=C(NCC(O)CO)C1N=C(c2ccc(OCCCO)cc2)N(c2ccccc2)O1 (stereo not drawn)", "assigned.class": "true (1)"}
{"molecule": "COc1ccc([Si](C)(C)[C@H]2[C@H](CCO)O[C@@]3(C(=O)N(Cc4cccc(N(C=O)c5ccccc5)c4)c4ccccc43)[C@@H]2C)cc1", "assigned.class": "true (1)"}
{"molecule": "CC1=C([C@H](O)CCc2ccccc2)[C@H](CO)n2c(=O)n(-c3ccccc3)c(=O)n2C1", "assigned.class": "false (0)"}
{"molecule": "CC(C)=CCCC(C)=CC(O)C1C=CC2C(=O)NC(=O)C2N1Nc1ccc(Cl)cc1Cl (stereo not drawn)", "assigned.class": "true (1)"}
{"molecule": "O=C1c2ccccc2[C@@]2(Cc3ccccc3N(Cc3ccccc3)C2=O)[C@H](c2ccc(CO)cc2)N1Cc1ccccc1Cl", "assigned.class": "false (0)"}
{"molecule": "NC(=O)NCC#Cc1ccc2c(c1)[C@]1(C(=O)N2)[C@H](c2ccc(OCCO)cc2)N2[C@H](c3ccccc3)[C@H](c3ccccc3)OC(=O)[C@H]2[C@@H]1C(=O)O", "assigned.class": "false (0)"}
{"molecule": "[N-]=[N+]=Nc1ccccc1C[C@@]1(C(=O)NCc2ccccc2)N=C(c2ccc(OCCCO)cc2)O[C@@H]1c1ccccc1N=[N+]=[N-]", "assigned.class": "false (0)"}
{"molecule": "COc1cc(CO)cc(I)c1O[C@H]1C=C(C(=O)NCCO)C[C@@H]2O[C@H]12", "assigned.class": "false (0)"}
{"molecule": "CC1CC/C=C\\[C@H]2OC34C=CCN(Cn5nnc6ccccc65)C(=O)[C@H]3N(CCCCCCO)C(=O)[C@@H]4C2C(=O)O1 (stereo partly drawn)", "assigned.class": "true (1)"}
{"molecule": "COc1cc(C(O)C2C=CC3C(=O)N(c4ccccc4)C(=O)C3N2Nc2ccccc2F)cc(OC)c1OC (stereo not drawn)", "assigned.class": "true (1)"}
{"molecule": "COC(=O)[C@@]1(Cc2ccc(F)cc2)[C@H]2c3cc(C(=O)N(C)C)n(CCc4ccc(O)c(O)c4)c3C[C@H]2CN1C(=O)c1ccccc1", "assigned.class": "true (1)"}
{"molecule": "COC(=O)[C@@]1(Cc2ccc(OC)cc2)[C@H]2c3cc(C(=O)N4CCCC4)n(Cc4ccc(C(F)(F)F)nc4)c3C[C@H]2CN1C(=O)c1ccccc1", "assigned.class": "true (1)"}
{"molecule": "CCN(CC)c1ccc(N2CC=CC34O[C@@H]5C=CCCOC(=O)C5[C@H]3C(=O)N(C(C)CO)[C@@H]4C2=O)cc1 (stereo partly drawn)", "assigned.class": "false (0)"}
{"molecule": "CC(C)C[C@@H]1NC(=O)[C@@]23C(=O)N[C@@H](Cc4ccccc4)C2[C@H](C)[C@@]2(C)O[C@H]2C3/C=C/C/C=C\\CNC(=O)CNC1=O (stereo partly drawn)", "assigned.class": "false (0)"}
{"molecule": "COCCOC(=O)N1C(=O)[C@@]2(c3ccccc31)[C@H](c1ccc(O)cc1)N1[C@H](c3ccccc3)[C@H](c3ccccc3)OC(=O)[C@H]1[C@@H]2C(=O)N1CCCCCCC1", "assigned.class": "true (1)"}
{"molecule": "COc1ccc([Si](C)(C)[C@@H]2[C@@H](CC(=O)N3CCC[C@H]3CO)O[C@]3(C(=O)N(Cc4ccc(N5CCOC5=O)cc4)c4ccccc43)[C@H]2C)cc1", "assigned.class": "false (0)"}
{"molecule": "NC(=O)N1C(=O)C2C(C1=O)C1C=C(CCCO)C2C(c2ccc(CN3CCCC3)cc2)N1Cc1sc2ccccc2c1Cl (stereo not drawn)", "assigned.class": "false (0)"}
{"molecule": "O=C(NC1CC1)[C@@H]1c2ccccc2C(=O)N(Cc2cc(C(F)(F)F)cc(C(F)(F)F)c2)[C@H]1c1ccc(CO)cc1", "assigned.class": "false (0)"}
{"molecule": "CCOC(=O)C1=CC[C@@H](c2ccccc2)N(S(=O)(=O)c2ccc(C)cc2)[C@H]1c1ccccc1I", "assigned.class": "true (1)"}
{"molecule": "COC(=O)[C@]1(CCC(=O)OC(C)(C)C)N=C(c2ccc(OCCCO)cc2)O[C@@H]1c1ccccc1N=[N+]=[N-]", "assigned.class": "false (0)"}
{"molecule": "CC=CC(O)C1C=CC2C(=O)NC(=O)C2N1Nc1ccc(Cl)cc1Cl (stereo not drawn)", "assigned.class": "true (1)"}
{"molecule": "COc1ccc(C(O)C2C=CC3C(=O)N(c4ccccc4)C(=O)C3N2Nc2ccc(C#N)cc2)cc1OCc1ccccc1 (stereo not drawn)", "assigned.class": "true (1)"}
{"molecule": "C[C@@H]1ON(c2ccccc2)[C@H](c2ccccc2)[C@H]1C(=O)O", "assigned.class": "false (0)"}
{"molecule": "CO[C@H]1O[C@H](CO)[C@@H](OC(=O)Nc2ccccc2)[C@H](OC(=O)Nc2ccccc2)[C@H]1OC(=O)Nc1ccccc1", "assigned.class": "false (0)"}
{"molecule": "C=C(C)[C@@H]1CC=C(C(O)C2C=CC3C(=O)N(c4ccccc4)C(=O)C3N2Nc2ccc([N+](=O)[O-])cc2)CC1 (stereo partly drawn)", "assigned.class": "false (0)"}
